Values compiled from patent US20170253656A1.

# system_tested: T1, hu-CD74 antigen (R&D SYSTEMS catalog #3590-CD-050) (human, UniProt P04233-2 73-232, limits assumed)
# T1 construct: Bought antigen; also called rhCD74; human CD74
# T1 sequence (looked up): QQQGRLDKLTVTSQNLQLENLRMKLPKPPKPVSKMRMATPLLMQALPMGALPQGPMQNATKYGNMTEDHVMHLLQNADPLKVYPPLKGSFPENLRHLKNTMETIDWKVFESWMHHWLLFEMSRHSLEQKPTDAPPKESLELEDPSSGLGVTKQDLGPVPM
# experiment: SPR (Biacore T200), captured on anti-human Fc, rhCD74 analyte
metric: pKd
Lab note — pKd values are minus log10 of concentrations in M.

binder	quantitative_result
1251-B09 heavy chain paired with VL SEQ ID NO: 272 (antibody, V domains shown) VH: QVQLVESGGGVVQPGRSLRLSCAASGFNFSDYGMHWVRQAPDKGLEWVAVTWYDGSREYYADSVKGRFTISRDNSKNTLYLQMNSLRAEDTAVYYCARGGTLVHGALYGNDVWGQGTTVTVSS VL: DIQMTQSPSSLSASVGDRVTITCRASQGISSWLAWYQQKPEKAPKSLIYAASSLQSGVPSRFSGSGSGTDFTLTISSLQPEDFATYYCQQYNSYPLTFGGGTKVEIK	9.65

Next, consider the following binder.
Query block: Endpoint output: pKd of 1275-D10 light chain paired with HC 1251-A06 (SEQ ID NO: 310) (antibody, human IgG1, V domains shown) VH: QVQLVESGGGVVQPGRSLRLSCAASGFDFSSYGMHWVRQAPDKGLEWVAVIWDDGSDRYYADSVKGRFTISRDNSKNTLYLQMNSLRAEDTAVYYCARGGTRVLGAIHGTDVWGQGTTVTVSS VL: DIQMTQSPSSLSASVGDRVTITCRASQGVFSWLAWYQQKPEKAPKSLIYNATQLQSGVPSRFSGSGSGTDFTLTISSLQPEDFATYYCQQYYYYPLTFGGGTKVEIK . Value?
Result block: 9.25
